The reported measurements were obtained from patent US20130053430A1.

- System: human CETP mRNA
- TEST_NAME: Antisense inhibition of human CETP mRNA in primary hepatocytes from huCETP transgenic mice (Example 4)
- Assay type: cell-based, mouse
- CONDITION_INFO: 200 nM, cytofectin, ~24 hours
Strand notation (5' to 3'): a small letter for the sugar, then the base; units joined by * are phosphorothioate-linked, units joined directly phosphodiester-linked; [ ] holds rarer units or linkages, { } end groups; capitals alone tell only the bases. e = 2'-O-(2-methoxyethyl) (MOE); [5mC] = 5-methylcytosine; d = 2'-deoxy (DNA)
Label criterion met for high-side Percent inhibition of human CETP mRNA (at or above 70%) and criterion not met for low-side Percent inhibition of human CETP mRNA (below it).

[[record]]
substance = "ISIS 349452: 5-10-5 MOE gapmer CAGGACTGTGGCAGCCAGCA (e[5mC]*eA*eG*eG*eA*d[5mC]*dT*dG*dT*dG*dG*d[5mC]*dA*dG*d[5mC]*e[5mC]*eA*eG*e[5mC]*eA)"
assayed_system = "human CETP mRNA"
group_label = "criterion not met"

[[record]]
substance = "ISIS 349457: 5-10-5 MOE gapmer TCTGGATCACCTTGGCAGTC (eT*e[5mC]*eT*eG*eG*dA*dT*d[5mC]*dA*d[5mC]*d[5mC]*dT*dT*dG*dG*e[5mC]*eA*eG*eT*e[5mC])"
assayed_system = "human CETP mRNA"
group_label = "criterion not met"

[[record]]
substance = "ISIS 349460: 5-10-5 MOE gapmer GCATCATGGCCTTCTCGCCC (eG*e[5mC]*eA*eT*e[5mC]*dA*dT*dG*dG*d[5mC]*d[5mC]*dT*dT*d[5mC]*dT*e[5mC]*eG*e[5mC]*e[5mC]*e[5mC])"
assayed_system = "human CETP mRNA"
group_label = "criterion met"

[[record]]
substance = "ISIS 349479: 5-10-5 MOE gapmer CTGGCAGCCCTTGTCTGGAC (e[5mC]*eT*eG*eG*e[5mC]*dA*dG*d[5mC]*d[5mC]*d[5mC]*dT*dT*dG*dT*d[5mC]*eT*eG*eG*eA*e[5mC])"
assayed_system = "human CETP mRNA"
group_label = "criterion not met"

[[record]]
substance = "ISIS 349516: 5-10-5 MOE gapmer CATCTCCGTACTCCTAACCC (e[5mC]*eA*eT*e[5mC]*eT*d[5mC]*d[5mC]*dG*dT*dA*d[5mC]*dT*d[5mC]*d[5mC]*dT*eA*eA*e[5mC]*e[5mC]*e[5mC])"
assayed_system = "human CETP mRNA"
group_label = "criterion met"

